- target: T1, SNTB1, Q13884
- T1 sequence (Q13884 107-205, limits assumed, looked up): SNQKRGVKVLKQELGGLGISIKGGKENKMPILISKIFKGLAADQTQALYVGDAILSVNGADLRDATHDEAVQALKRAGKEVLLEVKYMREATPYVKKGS
- measurement-protocol: holdup assay
- Parameters: key: below the threshold = too weak to quantify, mostly under pKd 3.1 to 4
- condition-info: plain residues with an end cap or a label only (N-terminal biotin on a linker: ado-ado)
readout-type: pKd

Examples with their reported pKd follow.
[[record]]
binder = "QLGSPTADLA [SIPA1, Q96FS4]"
readout_type = "pKd"
experimental_value = "below the threshold"

[[record]]
binder = "TFSRRPKTRV [CD226, Q15762]"
readout_type = "pKd"
experimental_value = "below the threshold"

[[record]]
binder = "KAEEKPPSKV [SCN4B, Q8IWT1]"
readout_type = "pKd"
experimental_value = "below the threshold"

[[record]]
binder = "PEKVSNTTVV [IGSF5, Q9NSI5]"
readout_type = "pKd"
experimental_value = 3.93

[[record]]
binder = "PSDSVGKDVF [EGLN1, Q9GZT9]"
readout_type = "pKd"
experimental_value = "below the threshold"

[[record]]
binder = "EFKQTSSFLV [JAM1, Q9Y624]"
readout_type = "pKd"
experimental_value = "below the threshold"


[ask] GET /values?readout=pKd&item= EPAKETTTNV [SLC2A3, P11169]
[reply] 4.57

[ask] GET /values?readout=pKd&item= DAAHHDESNC [FMNL3, Q8IVF7]
[reply] below the threshold

[ask] GET /values?readout=pKd&item= LLQEEWETVM [PTH1R, Q03431]
[reply] 4.24

[ask] GET /values?readout=pKd&item= NSTHNLKDYV [CLDN20, P56880]
[reply] below the threshold

[ask] GET /values?readout=pKd&item= IGHEDLETAV [DGKI, O75912]
[reply] 5.08
